Molecular target: ROCK1 (Homo sapiens (Human), UniProt Q13464)
Sequence (Q13464 whole entry, species assumed): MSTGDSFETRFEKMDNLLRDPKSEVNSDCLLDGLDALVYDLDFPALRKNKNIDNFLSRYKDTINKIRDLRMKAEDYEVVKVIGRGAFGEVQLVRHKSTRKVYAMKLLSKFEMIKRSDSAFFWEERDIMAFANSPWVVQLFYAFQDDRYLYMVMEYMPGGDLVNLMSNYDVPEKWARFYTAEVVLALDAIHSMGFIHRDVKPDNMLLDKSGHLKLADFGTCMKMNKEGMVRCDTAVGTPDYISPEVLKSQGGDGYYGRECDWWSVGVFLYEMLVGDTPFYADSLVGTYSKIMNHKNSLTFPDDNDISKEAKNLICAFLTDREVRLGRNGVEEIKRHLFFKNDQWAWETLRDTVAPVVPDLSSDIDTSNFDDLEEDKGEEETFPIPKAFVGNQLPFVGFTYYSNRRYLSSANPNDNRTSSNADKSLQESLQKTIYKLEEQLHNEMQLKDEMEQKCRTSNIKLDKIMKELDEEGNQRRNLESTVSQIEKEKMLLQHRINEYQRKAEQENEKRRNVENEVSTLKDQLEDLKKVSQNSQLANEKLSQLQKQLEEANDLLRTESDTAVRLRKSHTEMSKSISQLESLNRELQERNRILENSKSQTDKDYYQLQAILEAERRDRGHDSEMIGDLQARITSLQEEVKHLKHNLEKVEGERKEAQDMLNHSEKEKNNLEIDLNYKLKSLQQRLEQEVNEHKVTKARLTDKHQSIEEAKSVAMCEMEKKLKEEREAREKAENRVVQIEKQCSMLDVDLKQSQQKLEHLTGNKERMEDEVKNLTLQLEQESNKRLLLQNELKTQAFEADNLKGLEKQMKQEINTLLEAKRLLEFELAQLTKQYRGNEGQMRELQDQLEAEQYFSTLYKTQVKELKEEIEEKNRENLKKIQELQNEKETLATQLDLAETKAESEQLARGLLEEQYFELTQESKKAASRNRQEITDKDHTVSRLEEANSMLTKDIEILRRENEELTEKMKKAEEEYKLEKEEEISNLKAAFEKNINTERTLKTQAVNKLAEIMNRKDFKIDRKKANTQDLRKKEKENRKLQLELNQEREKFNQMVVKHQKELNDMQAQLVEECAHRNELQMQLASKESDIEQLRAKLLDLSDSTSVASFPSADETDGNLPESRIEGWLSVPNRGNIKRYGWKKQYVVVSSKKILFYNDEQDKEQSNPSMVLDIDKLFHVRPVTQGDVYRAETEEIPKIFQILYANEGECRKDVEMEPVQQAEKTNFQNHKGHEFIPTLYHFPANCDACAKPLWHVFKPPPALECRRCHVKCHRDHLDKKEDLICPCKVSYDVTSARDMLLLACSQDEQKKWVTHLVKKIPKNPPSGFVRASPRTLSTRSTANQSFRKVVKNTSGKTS
Test: biochemical
Where a name gives a salt, the structure may show the parent alone.
Provide the recorded IC50 for the entries that follow.

List reported IC50 for each of these compounds:
1. NCC(Oc1ccc(C(F)(F)F)cc1)C(=O)Nc1ccc(-c2cn[nH]c2)cc1 (centres unmarked) [Compound 5, dihydrochloride]
2. NC[C@@H](C(=O)Nc1ccc(-c2cn[nH]c2)cc1)c1ccccc1 [Compound 20, dihydrochloride]
3. Cc1ccc(C(=O)Oc2ccc(C(CN)C(=O)Nc3ccc(-c4cn[nH]c4)cc3)cc2)c(C)c1 (centres unmarked) [Compound 10, dihydrochloride]
4. NCC(C(=O)Nc1ccc(-c2cn[nH]c2)cc1)c1ccc(O)cc1 (centres unmarked) [Compound 9, dihydrochloride]
5. NCC(C(=O)Nc1ccc(-c2cn[nH]c2)cc1)c1ccc(CO)cc1 (centres unmarked) [Compound 11, dihydrochloride]
6. [N-]=[N+]=NC(CN)C(=O)Nc1ccc(-c2cn[nH]c2)cc1 (centres unmarked) [Compound 1, dihydrochloride]
7. NCC(C(=O)Nc1ccc(-c2cn[nH]c2)cc1F)c1ccccc1 (centres unmarked) [Compound 19, dihydrochloride]
8. NCC(C(=S)Nc1ccc(-c2cn[nH]c2)cc1)c1ccccc1 (centres unmarked) [Compound 14, dihydrochloride]

Given back:
1: 1 to 10 nM; 2: 1 to 10 nM; 3: 100 to 1000 nM; 4: 1 to 10 nM; 5: 1 to 10 nM; 6: 100 to 1000 nM; 7: 10 to 100 nM; 8: 1 to 10 nM
